Overview of reported pEC50 across a group of binders:
molecular target: T1, extracellular domain of human TF protein (human, UniProt P13726 34-251); test: ELISA, coated TF extracellular domain
T1 construct: range 34-251; Limits 34-251 are stated for the immunogen; also called the extracellular domain protein of TF; TF antigen
In textbook form, pEC50 equals minus log to base ten of the concentration in mol/L.

Examples with answers:
Binder	pEC50
TF-mAb-H30 (antibody, V domains shown, Humanized) VH: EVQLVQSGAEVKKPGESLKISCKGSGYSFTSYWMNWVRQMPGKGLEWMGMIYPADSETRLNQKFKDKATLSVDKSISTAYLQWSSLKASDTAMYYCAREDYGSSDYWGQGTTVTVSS VL: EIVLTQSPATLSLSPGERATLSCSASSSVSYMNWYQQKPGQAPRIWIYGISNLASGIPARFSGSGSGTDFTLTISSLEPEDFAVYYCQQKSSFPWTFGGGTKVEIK	10.83
TF-mAb-H44 (antibody, V domains shown, Humanized; also called humanized antibody TF-mAb-H44) VH: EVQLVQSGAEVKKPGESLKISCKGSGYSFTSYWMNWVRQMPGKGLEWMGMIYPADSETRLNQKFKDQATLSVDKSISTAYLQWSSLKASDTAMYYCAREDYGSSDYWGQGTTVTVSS VL: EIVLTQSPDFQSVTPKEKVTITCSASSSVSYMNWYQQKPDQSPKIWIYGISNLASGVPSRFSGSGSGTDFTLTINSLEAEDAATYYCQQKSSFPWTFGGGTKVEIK	10.92
TF-mAb-H38 (antibody, V domains shown, Humanized) VH: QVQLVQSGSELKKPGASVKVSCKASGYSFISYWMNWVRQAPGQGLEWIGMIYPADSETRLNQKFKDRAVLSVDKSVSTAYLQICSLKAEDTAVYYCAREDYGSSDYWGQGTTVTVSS VL: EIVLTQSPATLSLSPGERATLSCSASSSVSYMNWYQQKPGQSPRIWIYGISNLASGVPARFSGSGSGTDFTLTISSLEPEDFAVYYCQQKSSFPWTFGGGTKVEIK	10.75
TF-mAb-H31 (antibody, V domains shown, Humanized) VH: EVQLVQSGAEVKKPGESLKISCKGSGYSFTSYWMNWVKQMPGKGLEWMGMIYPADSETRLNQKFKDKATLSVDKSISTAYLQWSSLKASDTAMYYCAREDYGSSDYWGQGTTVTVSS VL: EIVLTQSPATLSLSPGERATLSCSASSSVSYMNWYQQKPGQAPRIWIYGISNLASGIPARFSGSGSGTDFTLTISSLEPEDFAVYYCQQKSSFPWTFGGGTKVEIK	10.84

Qu. Fill in the blank: the reported pEC50 of TF-mAb-H48 (antibody, V domains shown, Humanized) VH: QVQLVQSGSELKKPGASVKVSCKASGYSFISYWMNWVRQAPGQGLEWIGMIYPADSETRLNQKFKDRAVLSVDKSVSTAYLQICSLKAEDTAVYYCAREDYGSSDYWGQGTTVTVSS VL: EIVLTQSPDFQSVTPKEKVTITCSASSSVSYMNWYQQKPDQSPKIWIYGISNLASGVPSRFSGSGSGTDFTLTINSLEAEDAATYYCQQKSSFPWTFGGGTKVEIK is ____.
Ans. 10.82
